# System: corn
# test: Test B pre/postemergence corn
# Assay type: in vivo, Zea mays
# stated.conditions: Postemergence, Rate 125 g/ha; scale of 0 to 10 where 0 is no effect and 10 is complete control
recorded.metric: Plant response rating, Corn
Numbers only.

Example entries and their recorded answers appear below.
[[record]]
compound = "CC(C)N(C(=O)n1oc(=O)n(CC2=NOCCC2)c1=O)c1ccc(F)cc1F"
value_reported = 0

[[record]]
compound = "CC(C)N(C(=O)n1oc(=O)n(CCC(F)(F)F)c1=O)c1ccccc1"
value_reported = 2

[[record]]
compound = "COC(=O)C(C)n1c(=O)on(C(=O)N(c2ccc(Cl)cc2)C(C)C)c1=O (stereo not shown)"
value_reported = 0


Alright, here's another compound for you.
The reported corn Plant response rating, Corn of CCCCn1c(=O)on(C(=O)N(c2ccc(F)cc2F)C(C)C)c1=O is 0

###

# Tested on: rape
# test: Test B pre/postemergence rape
# Assay type: in vivo, Brassica napus
# stated.conditions: Preemergence, Rate 125 g/ha; 0 is no effect, 10 is complete control
Record form. Attribute: Rape plant response rating (0 to 10 scale). Fill in for each entry.

Solved cases (3 shown):
[[record]]
chemical_string = "CC(C)N(C(=O)n1oc(=O)n([C@@H](C)c2ccccc2)c1=O)c1ccc(Cl)cc1"
value_reported = 0

[[record]]
chemical_string = "CC(C)N(C(=O)n1oc(=O)n(C)c1=O)c1ccc(F)cc1"
value_reported = 9

[[record]]
chemical_string = "CC(C)N(C(=O)n1oc(=O)n([C@@H](C)c2ccccc2)c1=O)c1ccc(F)cc1"
value_reported = 0


# evaluate next
Reported Rape plant response rating (0 to 10 scale) of CC(C)N(C(=O)n1oc(=O)n(-c2ccc(OC(F)(F)F)cc2)c1=O)c1ccc(F)cc1 : 0

###

# Test system: purple nutsedge
# test: Test B pre/postemergence purple nutsedge
# Format: in vivo, Cyperus rotundus
# stated.conditions: Preemergence, Rate 250 g/ha; scale 0 to 10, 0 is no effect, 10 is complete control
I'd appreciate it if you could supply Nutsedge plant response rating values for the items below.
Give bare numbers.

[[record]]
compound = "CC(C)N(C(=O)n1oc(=O)n(CC(=O)N(C)C)c1=O)c1ccc(F)cc1F [Compound 440]"
recorded_metric = "Nutsedge plant response rating"
value_reported = 0

[[record]]
compound = "Cc1nsc(C)c1-n1c(=O)on(C(=O)N(c2ccc(F)cc2)C(C)C)c1=O [Compound 157]"
recorded_metric = "Nutsedge plant response rating"
value_reported = 0

[[record]]
compound = "CC1CCCCC1n1c(=O)on(C(=O)N(c2ccccc2)C(C)C)c1=O (stereo not drawn) [Compound 162]"
recorded_metric = "Nutsedge plant response rating"
value_reported = 0

[[record]]
compound = "CC(C)N(C(=O)n1oc(=O)n(C(C)C(=O)N(C)C)c1=O)c1ccc(F)cc1 (stereo not drawn) [Compound 478]"
recorded_metric = "Nutsedge plant response rating"
value_reported = 0

[[record]]
compound = "C=CCn1c(=O)on(C(=O)N(c2ccc(F)cc2)C2CC2)c1=O [Compound 154]"
recorded_metric = "Nutsedge plant response rating"
value_reported = 0


Each compound below has a recorded value; state its Nutsedge plant response rating.
1. CC(C)N(C(=O)n1oc(=O)n(C(C)C#N)c1=O)c1ccc(F)cc1F (stereo not drawn) [Compound 432]
2. Cc1nsc(C)c1-n1c(=O)on(C(=O)N(c2ccc(Cl)cc2)C(C)C)c1=O [Compound 159]
3. CC(C)N(C(=O)n1oc(=O)n(-c2cnn(C)c2)c1=O)c1ccccc1 [Compound 123]
4. CC(C)N(C(=O)n1oc(=O)n(C(C)C(=O)N(C)C)c1=O)c1ccc(F)cc1F (stereo not drawn) [Compound 481]

Solution:
[0, 0, 0, 6]
